Organism: Mus musculus
assayProtocol: Righting ability was determined in mice before rapid rolling (unaroused)
Type: functional
quantity: Loss of righting reflex (mg/kg)
Write down the numeric answer in mg/kg and omit the unit.

For reference, reported Loss of righting reflex for CCOC(=O)NC1=NC(c2cccc(C)c2C)CN1C (stereo not drawn) stands at 41

Form: molecule = COC(=O)NC1=NC(c2cccc(OC)c2)CN1 (stereo not drawn) ; Loss of righting reflex = 182

Loss of righting reflex recorded for this molecule, COC(=O)NC1=NC(c2ccccc2F)CN1 (stereo not drawn) , is 210

Quick note, Loss of righting reflex for CC(C)COC(=O)NC1=NC(c2ccccc2)CN1C (stereo not drawn) landed at 41

For record CN1C(=O)CN=C(c2ccccc2)c2cc(Cl)ccc21 the listed Loss of righting reflex is 67

Item: CCOC(=O)NC1=NC(c2cccc(Cl)c2)CN1C (stereo not drawn) | Loss of righting reflex: 70

GET /value?item= CCC1(c2ccccc2)C(=O)NC(=O)NC1=O &field=Loss of righting reflex returns 60

// CCN1CC(c2ccccc2)N=C1NC(=O)OC (stereo not drawn) : Loss of righting reflex value = 84

Lab book: Loss of righting reflex of COC(=O)NC1=NC(c2cccc(OC)c2)CN1C (stereo not drawn) noted as 100

Measured Loss of righting reflex, CC(C)OC(=O)NC1=NC(c2ccccc2F)CN1C (stereo not drawn) : 11

Query CCOC(=O)NC1=NC(c2ccccc2)CN1C (stereo not drawn) yields Loss of righting reflex of 100

The molecule listed as COC(=O)NC1=NC(c2cccc(C)c2)CN1C (stereo not drawn) shows Loss of righting reflex equal to 90

Lookup result for COC(=O)NC1=NC(c2ccccc2-c2ccccc2)CN1 (stereo not drawn) ; measured Loss of righting reflex: 70
